Assay: NCI Yeast Anticancer Drug Screen. Data for the bub3 strain (AID 167)
Settings: S. cerevisiae bub3 mutant strain, at 5.0 µM (retest, dose inferred, filed as 0.5), active compounds read high
This is part of a sample that, as a whole, favours compounds with a hit. Of some 79,000 tested, about 15% had one in any assay.
Attribute: growth inhibition
Assay readout: growth inhibition (%)

1) CCC1(OC(=O)CN)C(=O)OCc2c1cc1n(c2=O)Cc2cc3ccccc3nc2-1 (centres undefined) :: 8
2) O=C1N[C@@H]2C(=C[C@H](O)[C@@H](O)[C@H]2O)c2cc3c(c(O)c21)OCO3 :: 53
3) COc1ccccc1[As]=O (centres undefined) :: 12
4) CC(C)COP(=O)(OCC(C)C)C(=O)Nc1ccc(Cl)cc1 :: -2
5) Oc1c(-c2ccccc2)cc(-[n+]2c(-c3ccccc3)cc(-c3ccccc3)cc2-c2ccccc2)cc1-c1ccccc1 :: 99
6) CC12CCC3C(CCC4CC(N5CCCCC5)=CCC43C)C1CCC2O (centres undefined) :: -8
7) Cc1cc(C)[n+](CCOc2ccc(/C(=C(/Cl)c3ccccc3)c3ccccc3)cc2)c(C)c1 :: 67
8) OC(c1cc2c(c3ccccc13)CCCC2)C1CCCCN1 (centres undefined) :: 0
9) CCNc1ncc2ccccc2c1-c1ccc(N2CCN(CCCl)CC2)cc1 :: 13
10) CCCN(CCC)c1c([N+](=O)[O-])cc(S(N)(=O)=O)cc1[N+](=O)[O-] :: 4
11) O=C(N/N=C/c1cc(Cl)cc(Cl)c1[O-])c1ccccc1O.O=C(N/N=C/c1cc(Cl)cc(Cl)c1[O-])c1ccccc1O.[Zn+2] :: 95
12) NC(=O)/C=C/C(=O)O (tested in a mixture with another compound) :: -7
13) O=C1CN2C(Cl)(Cl)C2(c2ccccc2)c2cc(Cl)ccc2N1CC1CC1 (centres undefined) :: 39
14) [C-]#[O+].[C-]#[O+].[C-]#[O+].[CH3][Sn]([c]1ccccc1)[c]1ccccc1.[Co].c1ccc([PH+](c2ccccc2)c2ccccc2)cc1 :: 99

---

Measured growth inhibition of individual entries
Test: NCI Yeast Anticancer Drug Screen. Data for the CLN2oe strain (AID 163);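 note: 0% = growth of vehicle-only control cultures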
Settings: S. cerevisiae CLN2oe strain, at 11.0 µM, active compounds read high
Compounds without any hit were thinned out: in the full panel of roughly 79,000, 15% have a hit. Calls of active or inactive are those of the source. Rule as the data show it: active = growth inhibition above about 70%; inactive = the rest.
Assay readout: growth inhibition

1) C/C(=N\O)c1ccc2ccc3ccccc3c2c1 :: 6% (inactive)
2) COC(=O)C1C2c3ccccc3C(c3ccccc32)C1C(=O)OC (configuration not stated) :: 0% (inactive)
3) COc1cc(O)c2c(O)c3c(c4c2c1[C@]1(C4)C(C)=CCCC1(C)C)[C@H](O)[C@@]1(O)CC(=O)C(C(N)=O)=C(O)[C@@]1(O)C3=O :: 98% (active)
4) CC(Cc1ccccc1)N(C)Cc1nc(C2CCC([N+](=O)[O-])O2)no1 (configuration not stated) :: 8% (inactive)
5) COc1cc(C2c3cc4c(cc3[C@@H](Nc3ccc(N)cc3)C3COC(=O)[C@H]23)OCO4)cc(OC)c1O (some centres not stated) :: 92% (active)
6) CC1=C(N2CC2)C(=O)c2ccccc2C1=O :: 0% (inactive)
7) C[N+](C)(C)CC1CCCC(C[N+](C)(C)C)C1=O (configuration not stated) :: 6% (inactive)

---

Assay: NCI Yeast Anticancer Drug Screen. Data for the mlh1 strain (AID 171);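 note: 0% = growth of vehicle-treated control cultures of the same strain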
Details: S. cerevisiae mlh1 strain growth inhibition; at 3.7 µM; active compounds read high
This is part of a sample that, as a whole, favours compounds with a hit. Of some 79,000 tested, about 15% had one in any assay.
Assay readout: growth inhibition (%)

1. CN(N=O)C(=O)NNC(=O)N(C)N=O :: -3
2. Cc1ccc2c(c1N)C(=O)c1ccccc1C2=O :: -1
3. COc1cc2ccccc2c2cc([N+](=O)[O-])oc12 :: 10
4. CSc1ccccc1[As](C)C :: 20
5. CC1(Cl)CC(C)(/C=C/Cl)C(Cl)CC1Cl (stereo unspecified) :: 1
6. COc1cccc2c1C(=O)c1c(O)c3c(c(O)c1C2=O)C[C@@](O)(/C(C)=N\O)C[C@@H]3OC1CC(N)C(O)C(C)O1 (stereo partly specified) :: -1

---

Test: NCI Yeast Anticancer Drug Screen. Data for the mlh1 strain (AID 171);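 note: 0% = growth of vehicle-treated control cultures of the same strain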
Conditions: S. cerevisiae mlh1 strain growth inhibition; at 33.0 µM; active compounds read high
Method: Growth inhibition of yeast strains with defined genetic alterations is measured as a screen for potential anti-cancer activity. Selected strains with alterations in DNA damage repair or cell cycle control were exposed to compounds and growth inhibition was measured relative to vehicle treated controls. The strain used in this assay is mlh1
About 79,000 compounds went through this panel and 15% of them were active in at least one assay; those are over-represented in the sample as a whole.
Assay readout: growth inhibition (%)

1. CC(C)CC(NC(=O)C(N)C(C)C)C(=O)NC(CCCCN)C(=O)Nc1ccc(N(CCCl)CCCl)cc1 (centres undefined) :: -5
2. CC[C@@]1(O)C(=O)OCc2c1cc1n(c2=O)Cc2cc3ccccc3nc2-1 :: 93
3. CCS(=O)(=O)[O][Sn]([CH2]C)([CH2]C)[O]S(=O)(=O)CC :: 28
4. c1cc2c(cc1C1OC[C@H]3[C@@H](c4ccc5c(c4)OCO5)OC[C@@H]13)OCO2 (some centres undefined) :: -8

---

Experiment: NCI Yeast Anticancer Drug Screen. Data for the sgs1 mgt1 strain (AID 161);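 note: 0% = growth of cultures given vehicle only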
Conditions: S. cerevisiae sgs1 mgt1 strain, at 50.0 µM (retest, dose inferred, filed as 5.0), active compounds read high
About 79,000 compounds went through this panel and 15% of them were active in at least one assay; those are over-represented in the sample as a whole.
Assay readout: growth inhibition (%)

1. C=C[C@H]1CN2CC[C@H]1C[C@@H]2[C@@H](O)c1ccnc2ccccc12 :: -1
2. CCCCCNC(=O)c1c(O)[nH]c(=S)[nH]c1=O :: 87
3. Cn1cc(/C=C/[N+](=O)[O-])c2ccccc21 :: 97
4. FC(F)(F)c1cccc(CCl)c1 :: 1
5. CCOP(=O)(CP(=O)(OCC)OCC)OCC.[Cl][Sn]([Cl])([c]1ccccc1)[c]1ccccc1 :: 97
6. CCCCCCCCCCCCN=C(N)N :: 99
7. Oc1c(Cl)c(Cl)c(Cl)c(Cl)c1Cl (tested in a mixture with another compound) :: 99
8. CC(C)(c1ccccc1)c1ccc(O)cc1 :: 46
9. CC(C)=CC1CC(C)C2(CCC3(C)CC4C(C(=O)CC4(C)O)/C(C=O)=C\CC32)O1 (stereo not given) :: 99
10. CC(=O)Oc1ccc(N=C2C=C(Cl)C(=O)C(Cl)=C2)cc1 :: 24
11. CCOP(=O)(OCC)/C(C#N)=C/c1ccccc1Cl :: 65
12. ClCCN(CCCl)c1ccc(C2N(Cc3ccc(N(CCCl)CCCl)cc3Cl)CCCN2Cc2ccc(N(CCCl)CCCl)cc2Cl)cc1 :: 99
13. CNC(=O)ON(C(C)=O)C(=O)NC :: 100
14. C[CH2][Sn][CH2]C.c1cc[c]([Ge]([c]2ccccc2)[c]2ccccc2)cc1.c1cc[c]([Sn]([c]2ccccc2)[c]2ccccc2)cc1 :: 98
15. CC(C)C1=CC23CCC4C(C)(C(=O)O)CCCC4(C)C2CC1OO3 (stereo not given) :: 84
16. CCC[CH2][Pb]([CH2]CCC)([O]C(C)=O)[O]C(C)=O :: 94
17. NC1=NCC(c2ccc(Cl)cc2)O1 (stereo not given) :: 17
18. Cc1cccc(NC(=O)CBr)c1 :: 99
19. CCCCN(CC)CC(C(C)=O)c1c(O)c2ccccc2oc1=O (stereo not given) :: 65
20. CC[N+](C)(CC)CCNC(=O)C(O)(c1ccccc1)c1ccccc1 :: 36
21. O=c1oc2ccccc2c(O)c1C(C/C(CCN1CCCC1)=N\Nc1ccccc1)c1ccccc1 (stereo not given) :: 1
22. O=C(N/N=C/c1ccc(F)cc1)c1ccc(N(CCCl)CCCl)cc1 :: 2
23. O=C1C=CC(=O)N1c1cccc2ccccc12 (tested in a mixture with another compound) :: 2
24. CCC1(CC)C(=O)[N-]C(=O)[N-]C1=O.[Au+].[Au+].c1ccc([PH+](c2ccccc2)c2ccccc2)cc1.c1ccc([PH+](c2ccccc2)c2ccccc2)cc1 :: 96
25. N#Cc1ccc(N=Cc2c([O-])ccc3ccccc23)cc1.[C-]#[O+].[C-]#[O+].[Ir] :: 2
26. O=C1c2ccccc2-c2cccc3cccc1c23 :: -40
27. COc1ccc2c(c1O)-c1cccc3c1[C@@H](C2)N(CCCl)CC3 :: 95
28. S=C(S)N1CCOCC1 :: 82
29. FC(F)(F)c1nnn[n-]1.[Au+].c1ccc([PH+](c2ccccc2)c2ccccc2)cc1 :: 98
30. O=C1c2ccccc2-c2c3c(cc4ccnc1c24)OCO3 :: 96
31. Cc1cc(N(CCCl)CCCl)ccc1CN1CCCN(Cc2ccc(N(CCCl)CCCl)cc2C)C1c1cccc(F)c1 :: 98
32. CO/C(N)=C(\C#N)N=Cc1cccnc1 :: 32
33. CC(C)(C)OOC(=O)c1ccccc1 :: 93
34. O=S(=O)([O-])[O-].[OH3+].[OH3+].[OH3+].[Ru+2].c1ccccc1 :: 20
35. Cc1ccc(C(Cc2ccc(N3C(N)=NC(N)=NC3(C)C)cc2)C(=O)Nc2ccc(S(=O)(=O)F)cc2)cc1 (stereo not given) :: 99
